# test-target: Flt3 (FMS-like tyrosine kinase-3) (Homo sapiens, UniProt P36888)
# Sequence (P36888 27-993): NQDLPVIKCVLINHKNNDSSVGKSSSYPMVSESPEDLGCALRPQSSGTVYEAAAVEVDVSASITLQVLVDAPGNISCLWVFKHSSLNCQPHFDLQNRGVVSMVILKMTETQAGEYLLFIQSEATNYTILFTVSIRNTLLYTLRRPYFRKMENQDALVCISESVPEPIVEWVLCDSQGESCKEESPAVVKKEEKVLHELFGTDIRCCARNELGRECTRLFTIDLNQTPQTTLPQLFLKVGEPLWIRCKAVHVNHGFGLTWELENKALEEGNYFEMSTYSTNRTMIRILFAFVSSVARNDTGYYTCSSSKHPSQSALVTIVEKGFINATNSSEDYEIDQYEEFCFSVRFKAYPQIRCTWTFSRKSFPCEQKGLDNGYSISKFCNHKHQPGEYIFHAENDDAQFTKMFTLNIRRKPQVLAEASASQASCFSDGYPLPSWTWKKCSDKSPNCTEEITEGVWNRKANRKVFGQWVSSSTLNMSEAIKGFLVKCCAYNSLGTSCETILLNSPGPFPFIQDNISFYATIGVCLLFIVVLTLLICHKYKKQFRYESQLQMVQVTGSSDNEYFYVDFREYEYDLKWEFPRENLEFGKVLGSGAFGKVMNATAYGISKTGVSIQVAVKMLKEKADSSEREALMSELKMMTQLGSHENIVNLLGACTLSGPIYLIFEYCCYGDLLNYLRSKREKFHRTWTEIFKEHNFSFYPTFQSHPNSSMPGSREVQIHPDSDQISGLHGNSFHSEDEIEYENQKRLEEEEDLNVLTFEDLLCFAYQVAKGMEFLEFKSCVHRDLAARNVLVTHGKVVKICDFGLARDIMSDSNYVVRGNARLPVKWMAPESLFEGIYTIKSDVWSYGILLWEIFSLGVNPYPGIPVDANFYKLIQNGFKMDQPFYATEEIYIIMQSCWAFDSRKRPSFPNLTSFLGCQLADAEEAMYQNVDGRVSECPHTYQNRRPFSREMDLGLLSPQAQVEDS
# method-description: Kinase assay (radioactive phosphate incorporation), Flt3
# Type: biochemical
# condition-context: pIC50 is -log(IC50, M), read-out: Kinase Inhibition pIC50 Flt3 (converted)
parameter-measured: IC50 (nM)
Report the value in nM with no unit label.

stdin: Find the recorded IC50 belonging to COc1cc(Nc2nccc(-c3sc(-c4cccnc4)nc3C)n2)cc(OC)c1OC [Compound 154] and report it.
stdout: 100

stdin: Find the recorded IC50 belonging to CCNc1nc(C)c(-c2ccnc(Nc3ccc(S(N)(=O)=O)cc3)n2)s1 [Compound 35] and report it.
stdout: 63.1

stdin: Find the recorded IC50 belonging to CNc1nc(C)c(-c2ccnc(Nc3cccc(CC(=O)OCCOC)c3)n2)s1 [Compound 44] and report it.
stdout: 63.1

stdin: Find the recorded IC50 belonging to CNc1nc(C)c(-c2ccnc(Nc3cccc(S(C)(=O)=O)c3)n2)s1 [Compound 27] and report it.
stdout: 63.1

stdin: Find the recorded IC50 belonging to COc1cc(Nc2nccc(-c3sc(N)nc3C)n2)cc(OC)c1 [Compound 161] and report it.
stdout: 5.01

----------
I'd be grateful if you could share measured melting point for these entries.

stdin: Find the recorded melting point belonging to Cc1nc(N)sc1-c1ccnc(Nc2ccc(N3CCSCC3)cc2)n1 and report it.
stdout: 180 to 182 °C

stdin: Find the recorded melting point belonging to Cc1nc(-c2cccnc2)sc1-c1ccnc(Nc2ccc(N3CCCC3)cc2)n1 and report it.
stdout: 212 to 214 °C

stdin: Find the recorded melting point belonging to CCNc1nc(C)c(-c2ccnc(Nc3ccc(N4CCOCC4)c(C)c3)n2)s1 and report it.
stdout: 213 to 214 °C

stdin: Find the recorded melting point belonging to COc1cc(Nc2nccc(-c3sc(N)nc3C)n2)cc(OC)c1 and report it.
stdout: 269 to 271 °C

stdin: Find the recorded melting point belonging to Cc1nc(C)c(-c2ccnc(Nc3ccc(N4CCCC4)cc3)n2)s1 and report it.
stdout: 192 to 193 °C

stdin: Find the recorded melting point belonging to Cc1nc(-c2cccnc2)sc1-c1ccnc(Nc2ccc(N3CCSCC3)cc2)n1 and report it.
stdout: 191 to 193 °C

stdin: Find the recorded melting point belonging to COCCNS(=O)(=O)c1cccc(Nc2nccc(-c3sc(N)nc3C)n2)c1 and report it.
stdout: 179 to 180 °C

stdin: Find the recorded melting point belonging to CCNc1nc(C)c(-c2ccnc(Nc3ccc(N4CCSCC4)cc3)n2)s1 and report it.
stdout: 207 to 209 °C

stdin: Find the recorded melting point belonging to Cc1nc(NCCc2ccccc2)sc1-c1ccnc(Nc2ccc(N3CCN(Cc4ccccc4)CC3)cc2)n1 and report it.
stdout: 191 to 192 °C

stdin: Find the recorded melting point belonging to CC(=O)N1CCN(c2ccc(Nc3nccc(-c4sc(-c5ccc(N6CCOCC6)cc5)nc4C)n3)cc2)CC1 and report it.
stdout: 250 to 252 °C

stdin: Find the recorded melting point belonging to CCNc1nc(C)c(-c2ccnc(Nc3cc(Cl)c(N4CCOCC4)c(Cl)c3)n2)s1 and report it.
stdout: > 300 °C

stdin: Find the recorded melting point belonging to Cc1nc(-c2cccnc2)sc1-c1ccnc(Nc2ccc3c(c2)OCO3)n1 and report it.
stdout: 187 to 188 °C

stdin: Find the recorded melting point belonging to COc1cc(Nc2nccc(-c3sc(Nc4ccccc4)nc3C)n2)cc(OC)c1 and report it.
stdout: 191 to 194 °C

stdin: Find the recorded melting point belonging to CC(=O)N1CCN(c2ccc(Nc3nccc(-c4sc(-c5cccs5)nc4C)n3)cc2)CC1 and report it.
stdout: 134 to 136 °C

stdin: Find the recorded melting point belonging to Cc1nc(C)c(-c2ccnc(Nc3ccc(N4CCOCC4)c(C)c3)n2)s1 and report it.
stdout: 164 to 166 °C

stdin: Find the recorded melting point belonging to CCNc1nc(C)c(-c2ccnc(Nc3ccc(N4CCOCC4)c(OC)c3)n2)s1 and report it.
stdout: 224 to 226 °C

stdin: Find the recorded melting point belonging to Cc1nc(C)c(-c2ccnc(Nc3ccc(C)c(S(=O)(=O)N4CCOCC4)c3)n2)s1 and report it.
stdout: 81 to 83 °C

stdin: Find the recorded melting point belonging to Cc1nc(N)sc1-c1ccnc(Nc2ccc3c(c2)OCO3)n1 and report it.
stdout: 211 to 213 °C

stdin: Find the recorded melting point belonging to Cc1nc(NCCc2ccccc2)sc1-c1ccnc(Nc2ccc(N3CCOCC3)cc2)n1 and report it.
stdout: 226 to 228 °C

stdin: Find the recorded melting point belonging to CC(=O)NCc1cccc(Nc2nccc(-c3sc(-c4cccs4)nc3C)n2)c1 and report it.
stdout: 223 to 225 °C

stdin: Find the recorded melting point belonging to Cc1nc(-c2cccnc2)sc1-c1ccnc(Nc2ccc(N3CCOCC3)cc2)n1 and report it.
stdout: 240 to 242 °C

stdin: Find the recorded melting point belonging to CCNc1nc(C)c(-c2ccnc(Nc3ccc4c(c3)OCO4)n2)s1 and report it.
stdout: 194 to 195 °C

stdin: Find the recorded melting point belonging to CC(=O)NCc1cccc(Nc2nccc(-c3sc(-c4ncc(C(F)(F)F)cc4Cl)nc3C)n2)c1 and report it.
stdout: 217 to 218 °C

stdin: Find the recorded melting point belonging to CC(=O)NCc1cccc(Nc2nccc(-c3sc(NCc4ccccc4)nc3C)n2)c1 and report it.
stdout: 181 to 183 °C

stdin: Find the recorded melting point belonging to Cc1nc(C)c(-c2ccnc(Nc3ccc(N4CCSCC4)cc3)n2)s1 and report it.
stdout: 173 to 174 °C

stdin: Find the recorded melting point belonging to Cc1nc(N(C)c2cc(Cl)cc(Cl)c2)sc1-c1ccnc(Nc2ccc(N3CCOCC3)cc2)n1 and report it.
stdout: 216 to 218 °C

stdin: Find the recorded melting point belonging to CCNc1nc(C)c(-c2ccnc(Nc3cccc(S(=O)(=O)NCCO)c3)n2)s1 and report it.
stdout: 124 to 125 °C

stdin: Find the recorded melting point belonging to Cc1nc(-c2cccnc2)sc1-c1ccnc(Nc2ccc(N3CCOCC3)c(Cl)c2)n1 and report it.
stdout: 230 to 231 °C

stdin: Find the recorded melting point belonging to COc1cc(Nc2nccc(-c3sc(NCCc4ccccc4)nc3C)n2)cc(OC)c1OC and report it.
stdout: 184 to 186 °C

stdin: Find the recorded melting point belonging to CNc1nc(C)c(-c2ccnc(Nc3cccc(S(=O)(=O)NCCO)c3)n2)s1 and report it.
stdout: 189 to 190 °C

stdin: Find the recorded melting point belonging to Cc1cc(Nc2nccc(-c3sc(-c4cccnc4)nc3C)n2)ccc1N1CCCCC1 and report it.
stdout: 200 to 201 °C

stdin: Find the recorded melting point belonging to Cc1nc(N(C)c2ccc(Cl)cc2)sc1-c1ccnc(Nc2ccc(N3CCOCC3)cc2)n1 and report it.
stdout: 245 to 246 °C

stdin: Find the recorded melting point belonging to CC(=O)NCc1cccc(Nc2nccc(-c3sc(N(C)c4cc(Cl)cc(Cl)c4)nc3C)n2)c1 and report it.
stdout: 213 to 214 °C

stdin: Find the recorded melting point belonging to Cc1nc(N)sc1-c1ccnc(Nc2cccc(S(=O)(=O)N3CCOCC3)c2)n1 and report it.
stdout: 215 to 216 °C
